Record form. Attribute: sfGFP reporter fluorescence. Fill in for each entry.
B1: library; numbered along this chain (parent)
chain: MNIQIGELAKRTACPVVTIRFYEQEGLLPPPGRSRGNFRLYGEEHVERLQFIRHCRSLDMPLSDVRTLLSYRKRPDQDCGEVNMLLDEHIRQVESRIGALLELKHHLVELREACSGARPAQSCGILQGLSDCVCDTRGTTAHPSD

- Variants of: B1
- ASSAY_COMMENT: sfGFP reporter fluorescence (15 h) (µM FITC); higher = stronger transcriptional activation
- EXPERIMENTAL_SETUP: library round: Round 0; ligand: 30 µM Zn
Give bare numbers.

MNIQIGELAKRTACPVVTIRFYEQEGLLPPPGRSRGNFRLYGEEHVERLQFIRHCRSLDMPLSDVRTLLSYRKRPDQDCGEVNMLLDEHIRQVESRIGALLELKHHLVELREACSGARPAQSCGILQGLSDCVCDTRGTTAHQSD; 0.871

For each of the variants below, note its sfGFP reporter fluorescence.
1. MNIQIGELAKRTACPVVTIRFYEQEGLLPPPGRSRGNFRLYGEEHVERLQFIRHCRSLDMPLSDVRTKLSYRKRPDQDCGEVNMLLDEHIRQVESRIGALLELKHHLVELREACSGARPAQSCGILQGLSDCVCDTRGTTAHPSD
2. MNIQIGELAKRTACPVVTIRFYEQEGLLPPPGRSRGNFRLYGEEHVERLQFIRHCRSLDMPPSDVRTLLSYRKRPDQDCGEVNMLLDEHIRQVESRIGALLELKHHLVELREACSGARPAQSCGILQGLSDCVCDTRGTTAHPSD
3. MNIQIGELAKRTACPVVTIRFYEQEGLLPPPGRSRGNFRLYGEEHVERLQFIRHCRSLDMPLSDVRTLLSYRKRPDQACGEVNMLLDEHIRQVESRIGALLELKHHLVELREACSGARPAQSCGILQGLSDCVCDTRGTTAHPSD
4. MNIQIGELAKRTACPVVTIRFYEQEGLLPPPGRSRGNFRLYGEEHVERLQFIRHCRSLDMPLSDVRTLLSYRKRPDQDCGEVNMLLDEHIRQVESRIGALLELKHHLVELREACSGARPAQSCGILQGLSDCVCDTRGTTAHPSA
5. MNIQIGELAKRTACPVVTIRFYEQEGLLPPPGRSRGNFRLYGEEHVERLQFIRHCRSLDMPLSDVRTLLSYRKRPDQDCGEVNMLLDEHIRQVESRIGALLELKHHLVELSEACSGARPAQSCGILQGLSDCVCDTRGTTAHPSD
6. MNIQIGELAKRTACPVVTIRFYEQEGLLPPPGRSRGNFRLYGEEHVERLQFIRHCRSLDMPLSDVRTLLSYRKRPDQDCGEVNMLLDEHIRQVESRIGALLELKHHLVELREACSGARPAQSCGILQGLSDCVEDTRGTTAHPSD
7. MNIQIGELAKRTACPVVTIMFYEQEGLLPPPGRSRGNFRLYGEEHVERLQFIRHCRSLDMPLSDVRTLLSYRKRPDQDCGEVNMLLDEHIRQVESRIGALLELKHHLVELREACSGARPAQSCGILQGLSDCVCDTRGTTAHPSD

1: 0.0638; 2: 0.0993; 3: 0.1; 4: 0.56; 5: 1.14; 6: 0.929; 7: 0.0605

Look at each variant and report its sfGFP reporter fluorescence.
1. MNIQIGELAKRTACPVVTIRFYEQEGLLPPPGRSRGNFRLYGEEHVERLQFIRHCRSLDMPHSDVRTLLSYRKRPDQDCGEVNMLLDEHIRQVESRIGALLELKHHLVELREACSGARPAQSCGILQGLSDCVCDTRGTTAHPSD
2. MNIQIGELAKRTACPVVTIRFYEQEGSLPPPGRSRGNFRLYGEEHVERLQFIRHCRSLDMPLSDVRTLLSYRKRPDQDCGEVNMLLDEHIRQVESRIGALLELKHHLVELREACSGARPAQSCGILQGLSDCVCDTRGTTAHPSD
3. MNIQIGELAKRTACPVVTIRFYEQEGLLPPPGRSRGNFRLYGEEHVERLQFIRHCRSLDMPLSDVRTLLSYRKRPDQDCGEVNMLLDEHIRQVESRIGALLELKHHLVELREACSGARPAQSCGILQGLSQCVCDTRGTTAHPSD
4. MNIQIGELAKRTACPVVTIRFYEQEGLLPPPGRSRGNFRLYGEEHVERLQFIRHCRSLDGPLSDVRTLLSYRKRPDQDCGEVNMLLDEHIRQVESRIGALLELKHHLVELREACSGARPAQSCGILQGLSDCVCDTRGTTAHPSD
5. MNIQIGELAKRTACPVVTIRFYEQEGLLPPPGRSRGNFRLYGEEHVERLQFIRHCRSLDMPLSDVRTLLSYRKRPDQDCGEVNMLLDEHIRQVESRIGALLELKHHLFELREACSGARPAQSCGILQGLSDCVCDTRGTTAHPSD
6. MNIQIGELAKRTACPVVTIRFYEQEGLLPPPGRSRGNFRLYGEEHVERLQFIRHCRSLDMPLSDVRTLLSYRKRPDQDCGEVNMLLDEHIRQVESRIGALLELKHHLVELREAPSGARPAQSCGILQGLSDCVCDTRGTTAHPSD

0.0918
0.0647
1.26
0.0588
0.436
0.052

Batch lookup, sfGFP reporter fluorescence per entry.
1. MNIQIGELAKRTACPVVTIRFYEQEGLLPPPGRSRGNFRLYGEEHVERLAFIRHCRSLDMPLSDVRTLLSYRKRPDQDCGEVNMLLDEHIRQVESRIGALLELKHHLVELREACSGARPAQSCGILQGLSDCVCDTRGTTAHPSD
2. MNIQIGELAKRTACPVVTIRFYEQEGLLPPPGRSRGNFRLYGEEHVERLQFIRHCRSLDMPLSDVRTWLSYRKRPDQDCGEVNMLLDEHIRQVESRIGALLELKHHLVELREACSGARPAQSCGILQGLSDCVCDTRGTTAHPSD
3. MNIQIGELAKRTACPVVTIRFYEQEGLLPPPGRSRGNFRLYGEEHVERLQFIRHCRSLDMPLSDVRTSLSYRKRPDQDCGEVNMLLDEHIRQVESRIGALLELKHHLVELREACSGARPAQSCGILQGLSDCVCDTRGTTAHPSD
4. MNIQIGELAKRTACPVVTIRFYEQEGLLPPPGRSRGNFRLYGEEHVERLQFIRHCRSLDMPLSDVRTLLSYRKRPDQDCGEVNMLLDEHIRQVESRIGALLELKHHLVELREACSGARPAQSCGILQALSDCVCDTRGTTAHPSD
5. MNIQIGELAKRTACPVVTIRFYEQEGLLPPPGRSAGNFRLYGEEHVERLQFIRHCRSLDMPLSDVRTLLSYRKRPDQDCGEVNMLLDEHIRQVESRIGALLELKHHLVELREACSGARPAQSCGILQGLSDCVCDTRGTTAHPSD
6. MNIQIGELAKRTACPVVTIRFYEQEGLLPPPGRSRGNFRLYGEEHVERLQFIRHCRSLDMPLSDVRTLLSYRKRPDQDCGEVNMLLDEHIRQVESRIGALLELKHHLIELREACSGARPAQSCGILQGLSDCVCDTRGTTAHPSD

0.743
0.111
0.0636
2.53
2.06
0.508

Report sfGFP reporter fluorescence for MNIQIGELAKRTACPVVTIRFYEQEGLLPPPGRARGNFRLYGEEHVERLQFIRHCRSLDMPLSDVRTLLSYRKRPDQDCGEVNMLLDEHIRQVESRIGALLELKHHLVELREACSGARPAQSCGILQGLSDCVCDTRGTTAHPSD please.
0.328

Hey, just so you know, these numbers are from the supplement of paper PMC12783771.
